The origin of these recorded values is patent US5053070A.

system: bulrush; experiment: Treatment of soil under submerged condition, pre-emergence (Test 4); assay type: in vivo; conditions: 30 g ai/a granule, 30 days later
PROPERTY_LABEL: Herbicidal effects Bulrush

COMPOUND: COc1cc(OC)nc(Oc2ccccc2C=O)n1 [B, reference compound]
EXPERIMENTAL_RESULT: 3 (11-40 (Medium damages))

COMPOUND: C=C(Cl)CON=Cc1ccccc1Oc1nc(OC)cc(OC)n1 [Compound No. 14]
EXPERIMENTAL_RESULT: 3 (11-40 (Medium damages))

COMPOUND: COc1cc(OC)nc(Oc2ccccc2C=NOCC#Cc2ccccc2)n1 [compound 42]
EXPERIMENTAL_RESULT: 4 (6-10 (Severe damages))

COMPOUND: COc1cc(OC)nc(Oc2ccccc2C=NOCc2ccccc2)n1 [Compound No. 15]
EXPERIMENTAL_RESULT: 1 (71-90 (Slight damages))

COMPOUND: COc1cc(OC)nc(Oc2ccccc2C=NOCc2ccc(C)cc2)n1 [compound 19]
EXPERIMENTAL_RESULT: 4 (6-10 (Severe damages))

COMPOUND: COc1cc(OC)nc(Oc2ccccc2C=NOCC=Cc2cccc(Cl)c2)n1 [Compound No. 26]
EXPERIMENTAL_RESULT: 4 (6-10 (Severe damages))

COMPOUND: COc1cc(OC)nc(Oc2ccccc2C=NOCC=Cc2ccc(Cl)cc2Cl)n1 [compound 30]
EXPERIMENTAL_RESULT: 4 (6-10 (Severe damages))

COMPOUND: COc1cc(OC)nc(Oc2ccccc2C=NOCC=Cc2ccccc2C(F)(F)F)n1 [compound 32]
EXPERIMENTAL_RESULT: 4 (6-10 (Severe damages))

COMPOUND: COc1cc(OC)nc(Oc2ccccc2C=NOCC=CCl)n1 [compound 11]
EXPERIMENTAL_RESULT: 3 (11-40 (Medium damages))

COMPOUND: COc1cc(OC)nc(Oc2ccccc2C=NOCC=Cc2cccc(C)c2)n1 [Compound No. 34]
EXPERIMENTAL_RESULT: 4 (6-10 (Severe damages))

COMPOUND: COc1cc(OC)nc(Oc2ccccc2C=NOCC=C(C)Cl)n1 [compound 12]
EXPERIMENTAL_RESULT: 4 (6-10 (Severe damages))

COMPOUND: COc1cc(OC)nc(Oc2ccccc2C=NOCC=Cc2ccc(F)cc2)n1 [compound 29]
EXPERIMENTAL_RESULT: 3 (11-40 (Medium damages))

COMPOUND: COc1cc(OC)nc(Oc2ccccc2C=NOCC=C(C)C)n1 [Compound No. 7]
EXPERIMENTAL_RESULT: 4 (6-10 (Severe damages))

COMPOUND: COc1cc(OC)nc(Oc2ccccc2C=NOCCc2ccccc2)n1 [compound 23]
EXPERIMENTAL_RESULT: 4 (6-10 (Severe damages))

COMPOUND: CCCC=CCON=Cc1ccccc1Oc1nc(OC)cc(OC)n1 [compound 25]
EXPERIMENTAL_RESULT: 3 (11-40 (Medium damages))

COMPOUND: COc1cc(OC)nc(Oc2ccccc2C=NOC(C)c2ccccc2)n1 (centres unmarked) [compound 21]
EXPERIMENTAL_RESULT: 3 (11-40 (Medium damages))

COMPOUND: COc1cc(OC)nc(Oc2ccccc2C=NOCC=Cc2ccc(C(F)(F)F)cc2)n1 [compound 35]
EXPERIMENTAL_RESULT: 3 (11-40 (Medium damages))

COMPOUND: COc1cc(OC)nc(Oc2ccccc2C=NOCC=Cc2ccc(Cl)cc2)n1 [Compound No. 28]
EXPERIMENTAL_RESULT: 3 (11-40 (Medium damages))

COMPOUND: COc1cccc(C=CCON=Cc2ccccc2Oc2nc(OC)cc(OC)n2)c1 [compound 38]
EXPERIMENTAL_RESULT: 4 (6-10 (Severe damages))

COMPOUND: CON=Cc1ccccc1Oc1nc(OC)cc(OC)n1 [Compound No. 1]
EXPERIMENTAL_RESULT: 2 (41-70 (Small damages))

COMPOUND: CCc1ccc(C=CCON=Cc2ccccc2Oc2nc(OC)cc(OC)n2)cc1 [compound 37]
EXPERIMENTAL_RESULT: 4 (6-10 (Severe damages))

COMPOUND: C#CCON=Cc1ccccc1Oc1nc(OC)cc(OC)n1 [Compound No. 13]
EXPERIMENTAL_RESULT: 5 (0-5 (Death))

COMPOUND: COc1cc(OC)nc(Oc2ccccc2C=NOCC=Cc2cccc(Cl)c2Cl)n1 [compound 41]
EXPERIMENTAL_RESULT: 4 (6-10 (Severe damages))

COMPOUND: COc1cc(OC)nc(Oc2ccccc2C=NO)n1 [Compound No. 24]
EXPERIMENTAL_RESULT: 2 (41-70 (Small damages))

COMPOUND: CC=CCON=Cc1ccccc1Oc1nc(OC)cc(OC)n1 [compound 8]
EXPERIMENTAL_RESULT: 4 (6-10 (Severe damages))

COMPOUND: COc1cc(OC)nc(Oc2ccccc2C=NOCC=Cc2ccccc2Br)n1 [compound 40]
EXPERIMENTAL_RESULT: 3 (11-40 (Medium damages))

COMPOUND: COc1cc(OC)nc(Oc2ccccc2C=NOCc2ccc(Cl)c(Cl)c2)n1 [compound 18]
EXPERIMENTAL_RESULT: 2 (41-70 (Small damages))

COMPOUND: COc1cc(OC)nc(Oc2ccccc2C=NOCC=Cc2ccc(Cl)c(Cl)c2)n1 [compound 31]
EXPERIMENTAL_RESULT: 3 (11-40 (Medium damages))

COMPOUND: COc1cc(OC)nc(Oc2ccccc2C=NOC(C)C)n1 [compound 6]
EXPERIMENTAL_RESULT: 4 (6-10 (Severe damages))

COMPOUND: COc1cc(OC)nc(Oc2ccccc2C=NOCc2cccc3ccccc23)n1 [compound 22]
EXPERIMENTAL_RESULT: 3 (11-40 (Medium damages))

COMPOUND: COc1cc(OC)nc(Oc2ccccc2C=NOC2CCCCC2)n1 [Compound No. 3]
EXPERIMENTAL_RESULT: 4 (6-10 (Severe damages))

COMPOUND: COc1cc(OC)nc(Oc2ccccc2C=NOCC=Cc2ccccc2C)n1 [Compound No. 39]
EXPERIMENTAL_RESULT: 4 (6-10 (Severe damages))

COMPOUND: C=CCON=Cc1ccccc1Oc1nc(OC)cc(OC)n1 [Compound No. 4]
EXPERIMENTAL_RESULT: 4 (6-10 (Severe damages))

COMPOUND: COc1cc(OC)nc(Oc2ccccc2C=NOCc2cccc(C)c2)n1 [compound 20]
EXPERIMENTAL_RESULT: 4 (6-10 (Severe damages))

COMPOUND: COc1cc(OC)nc(Oc2ccccc2C=NOCC=Cc2ccccc2)n1 [Compound No. 9]
EXPERIMENTAL_RESULT: 4 (6-10 (Severe damages))

COMPOUND: C=CC(C)ON=Cc1ccccc1Oc1nc(OC)cc(OC)n1 (centres unmarked) [Compound No. 2]
EXPERIMENTAL_RESULT: 4 (6-10 (Severe damages))

COMPOUND: COc1cc(OC)nc(Oc2ccccc2C=NOCC=Cc2ccccc2Cl)n1 [Compound No. 27]
EXPERIMENTAL_RESULT: 4 (6-10 (Severe damages))

COMPOUND: COc1cc(OC)nc(Oc2ccccc2C=NOCc2ccccc2Cl)n1 [compound 16]
EXPERIMENTAL_RESULT: 3 (11-40 (Medium damages))

###

tested on: ALS (acetolactate syntase); assay: ALS enzyme assay (Test 1); assay type: biochemical, barnyardgrass; settings: 1,000 ppm (0.5 mg/0.5 ml)
PROPERTY_LABEL: Inhibitory activity (%) Barnyardgrass

SMI: COc1cc(OC)nc(Oc2ccccc2C=NOCc2ccc(Cl)cc2Cl)n1
QUANTITY_UNIT: %
EXPERIMENTAL_RESULT: 15
--
SMI: COc1cc(OC)nc(Oc2ccccc2C=NOCc2ccc(Cl)c(Cl)c2)n1
QUANTITY_UNIT: %
EXPERIMENTAL_RESULT: 14
--
SMI: COc1cccc(C=CCON=Cc2ccccc2Oc2nc(OC)cc(OC)n2)c1
QUANTITY_UNIT: %
EXPERIMENTAL_RESULT: 91
--
SMI: COc1cc(OC)nc(Oc2ccccc2C=NOCC=C(C)C)n1
QUANTITY_UNIT: %
EXPERIMENTAL_RESULT: 84
--
SMI: COc1cc(OC)nc(Oc2ccccc2C=NOCC=Cc2cccc(Cl)c2)n1
QUANTITY_UNIT: %
EXPERIMENTAL_RESULT: 89
--
SMI: CCc1ccc(C=CCON=Cc2ccccc2Oc2nc(OC)cc(OC)n2)cc1
QUANTITY_UNIT: %
EXPERIMENTAL_RESULT: 93

###

test system: green foxtail; assay: Upland foliar application test (Test 3); format: in vivo; conditions: 30 g ai/a, foliar spray at 2-3 leaves, 30th day
// reported Herbicidal effects Green foxtail per item
PROPERTY_LABEL: Herbicidal effects Green foxtail

MOLECULE: C=CCON=Cc1ccccc1Oc1nc(OC)cc(OC)n1 [Compound No. 4]
PROPERTY_LABEL: Herbicidal effects Green foxtail
EXPERIMENTAL_RESULT: 5 (0-5 (Death))

MOLECULE: C=C(C)CON=Cc1ccccc1Oc1nc(OC)cc(OC)n1 [compound 5]
PROPERTY_LABEL: Herbicidal effects Green foxtail
EXPERIMENTAL_RESULT: 5 (0-5 (Death))

MOLECULE: COc1cc(OC)nc(Oc2ccccc2C=NOCC=Cc2ccc(Cl)cc2)n1 [Compound No. 28]
PROPERTY_LABEL: Herbicidal effects Green foxtail
EXPERIMENTAL_RESULT: 4 (6-10 (Severe damages))

MOLECULE: COc1cc(OC)nc(Oc2ccccc2C=NOCC=Cc2ccccc2Br)n1 [compound 40]
PROPERTY_LABEL: Herbicidal effects Green foxtail
EXPERIMENTAL_RESULT: 4 (6-10 (Severe damages))

MOLECULE: COc1cc(OC)nc(Oc2ccccc2C=NOC(C)C)n1 [compound 6]
PROPERTY_LABEL: Herbicidal effects Green foxtail
EXPERIMENTAL_RESULT: 5 (0-5 (Death))
